# Measured on: GAL4 DBD (1-147)-CfEcR(DEF)/VP16AD-βRXREF-LmUSPEF (Choristoneura fumiferana, UniProt O77240)
# Construct: The wild-type D, E, and F domains from spruce budworm Choristoneura fumiferana EcR (“CfEcR-DEF”)
# Protocol description: 27-63 Assay (luciferase reporter gene assay in stably transfected CHO cell clone)
# Assay type: cell-based
# Reported conditions: maximum fold induction at any concentration relative to maximum fold induction of GS-E ligand; CHO 27-63 clone, luciferase, 48 h
The threshold is 0.8. Values of relative Max F1 27-63 Assay beneath it are tagged condition met; values meeting or exceeding it are tagged condition not met.

Solved entries (count: 5):
Compound | Category label
Cc1cc(C)cc(C(=O)N(NC(=O)c2ccc3c(c2C)OC(C(=O)O)CO3)C(C)(C)C)c1 (centres unmarked) | condition met
CCCCCCC(N(NC(=O)c1ccc(CC)cc1)C(=O)c1cc(C)cc(C)c1)C(C)(C)C (centres unmarked) | condition met
C=CCC(C)(C)C(CCCC)N(NC(=O)c1cccc(OC)c1C)C(=O)c1cc(C)cc(C)c1 (centres unmarked) | condition not met
Cc1cc(C)cc(C(=O)N(NC(=O)c2ccc3c(c2C)OC(CC#N)CO3)C(C)(C)C)c1 (centres unmarked) | condition not met
Cc1cc(C)cc(C(=O)N(NC(=O)c2ccc3c(c2C)OC(C=O)CO3)C(C)(C)C)c1 (centres unmarked) | condition not met

As a next step, examine the compound that follows.
Does Cc1cc(C)cc(C(=O)N(NC(=O)c2ccc3c(c2C)OC(CCN)CO3)C(C)(C)C)c1 (centres unmarked) have relative Max F1 27-63 Assay strictly under 0.8? condition not met
